systemUnderTest: T1, His-tagged P3028 (human, also: His tag, length and end not given here)
T1 construct: in solution at 0.5 ug/mL, detected with mouse anti-His antibody and rabbit anti-mouse peroxidase (rampo); also called PGE73; His-tag-P3028; not shown: His tag
T1 peptide: VFDEFKPLVEEPQNLIK
assayText: PEPSCAN ELISA, peptide on chip;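 note: binding detected by peroxidase ELISA with ABTS, OD405 colour imaged by CCD camera before and after staining, raw OD405 reported as rampo units, air-bubble wells scored 0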
Ends that are not written are not given here.
The reader will find reported RAMPO Score values listed item by item below.
outcomeMeasure: RAMPO Score (rampo units)

INSERT INTO assay_data (binder, recordedvalue) VALUES
  ('KKNDTFFVKLSLFTER [SEQ ID NO 292]', 374),
  ('KKLDTFFVKLSLRTER [SEQ ID NO 371]', 502),
  ('KKLDTIFVKLSLFTER [SEQ ID NO 314]', 466),
  ('KKLDTFFVKLSVFTER [SEQ ID NO 359]', 545);
